experiment: Quantitative highthroughput screen to assess conditional lethalithy of NOMO1 cells grown in Human Plasma-Like Medium with dialyzed fetal bovine serum (HPLM+ds) (AID 1963878); settings: NOMO1 AML cells in HPLM+ds, CellTiter-Glo viability, 48 h; series mostly up to 45.8 µM; also: nearly all actives have a fitted effect of over 35% in size;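 as to viability: 100% = DMSO wells and 0% = empty wells on each plate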
Results filed as inconclusive are left out. Calls of active or inactive are those of the source. Calls follow the shape of the dose curve; as a rule, active = well fitted cell-killing curve with a large enough effect; inconclusive = small, poorly fitted or top-dose-only effect, or effect the other way; inactive = no such curve, though single readings can be large or run the other way.
Pick from 1 = active, -1 = inactive when you respond.

Query: Recorded test call requested for CC(=O)OCC(=O)[C@@]1(O)[C@H](C)C[C@H]2[C@@H]3C=C(C)C4=Cc5c(cnn5-c5ccccc5)C[C@]4(C)[C@@H]3[C@@H](O)C[C@@]21C
Reply: -1

Query: Check the results log: what was the call for CN1N=C(N)c2cn([C@@H]3O[C@H](COP(=O)(O)O)[C@@H](O)[C@@H]3O)c3ncnc1c23 ?
Reply: 1

Query: GET /call?item= CCOC(=O)C=C[C@H](C[C@@H]1CCNC1=O)NC(=O)[C@@H](CC(=O)[C@@H](NC(=O)c1cc(C)on1)C(C)C)Cc1ccc(F)cc1 returns the recorded outcome of this test.
Reply: -1

Query: What call does the record list for NC1CCC(Nc2nc(Nc3ccc(C(=O)N4CCCCC4)cc3)c3ncn(-c4cccc(F)c4)c3n2)CC1 (configuration not stated) ?
Reply: -1

Query: Name the outcome recorded for CN(CCOc1ccc(CC2SC(=O)NC2=O)cc1)c1ccccn1 (configuration not stated) in the assay.
Reply: -1

Query: Assay result, entry C[C@@]12O[C@@H](C[C@]1(O)CO)n1c3ccccc3c3c4c(c5c6ccccc6n2c5c31)CNC4=O — outcome?
Reply: 1

Query: Could you check what this test reported for CC(=O)O[C@H]1C[C@@H]2CC[C@H]3[C@H]4C[C@H]([N+]5(C)CCCCC5)[C@@H](OC(C)=O)[C@@]4(C)CC[C@@H]3[C@@]2(C)C[C@H]1N1CCCCC1 ?
Reply: -1

Query: Check the results log: what was the call for N=C(N=C(N)N)N1CCOCC1 ?
Reply: -1

Query: Which result was noted for this compound in the test: CCC(C=C[C@@H]1OC(=O)C=C[C@H]1C)=C[C@H](C)CC=CC(C)=C[C@@H](C)C(=O)[C@@H](C)[C@H](O)[C@@H](C)CC(C)=CC(=O)O
Reply: 1

Query: How did this test come out for CC(C)(C)OC(=O)Nc1ccc(-c2cc(C(=O)NCCCCCCC(=O)NO)no2)cc1 ?
Reply: 1

Query: Hi team, can someone confirm the assay call for C[C@H](NC(=O)Cc1cc(F)cc(F)c1)C(=O)N[C@H](C(=O)OC(C)(C)C)c1ccccc1 ?
Reply: -1

Query: Assay outcome for CC(C)NCC(O)c1ccc(O)c(O)c1 (configuration not stated) : what was it?
Reply: 1

Query: Record request — test call for C=C1C[C@@]2(O)O[C@@]3(C[C@H]2C(C)C)[C@H](C)CC[C@H]13
Reply: -1

Query: Just curious, what result did N#CC(c1ccnc(NCCc2cccnc2)n1)c1nc2ccccc2s1 (configuration not stated) get here?
Reply: -1

Query: I'd appreciate the recorded outcome for Clc1ccc(Nc2nnc(Cc3ccncc3)c3ccccc23)cc1 from this test.
Reply: -1

Query: Short answer needed: outcome of this test for COc1ccc2c3n(c(=NC(=O)c4cccnc4)nc2c1OC)CCN3 ?
Reply: 1

Query: Assay outcome for COc1ccc(-c2ccc3c(N4CCOCC4)nc(N4C[C@@H](C)O[C@@H](C)C4)nc3n2)cc1CO : what was it?
Reply: 1

Query: For CN(C)c1ccc2nc3ccc(=[N+](C)C)cc-3sc2c1 , which call appears in the assay record?
Reply: 1

Query: Could you please tell me the result logged for CC(C)c1ccc(Cn2ccc3c4c(N)nc(NC5CC5)nc4ccc32)cc1 in this assay?
Reply: 1

Query: Test call for this compound, please: Cc1cc(Nc2ncc3c(n2)N(C)C(=O)N(c2cc(NC(=O)c4cccc(C(F)(F)F)c4)ccc2C)C3)n(C)n1
Reply: 1

Query: Test call, this compound: CN1CCN(c2cc(C(=O)Nc3ccc4c(c3)-c3c(c(C(N)=O)nn3-c3ccc(F)cc3)CC4)c(Cl)cn2)CC1
Reply: 1

Query: What was the test verdict on CC(=O)OC1C(C)OC(Oc2c(-c3ccc(O)cc3)oc3cc(O)cc(O)c3c2=O)C(O)C1OC(C)=O (configuration not stated) ?
Reply: -1

Query: Hi, sorry to bother you, what did the test record for CCOC(=O)[C@H](CCc1ccccc1)N[C@H]1CS[C@H](c2cccs2)CN(CC(=O)O)C1=O ?
Reply: 1

Query: What is the recorded call for this compound in the test? CC(C)N(C[C@H]1O[C@@H](n2cnc3c(N)ncnc32)[C@H](O)[C@@H]1O)C1CC(CCc2nc3ccc(C(C)(C)C)cc3[nH]2)C1 (some centres not stated)
Reply: 1

Query: Entry CNC1CCC(N(Cc2cccc(-c3ccncc3)c2)C(=O)c2sc3ccccc3c2Cl)CC1 (configuration not stated) : call = ?
Reply: 1

Query: Please indicate how the test categorized CC(=O)OCC(=O)[C@@]1(O)CC[C@H]2[C@@H]3CCC4=CC(=O)CC[C@]4(C)[C@@H]3C(=O)C[C@@]21C .
Reply: -1

Query: // param item: Fc1ccc(Cl)cc1-c1nc(Nc2ccncc2)c2nccnc2n1 ; yields the recorded call
Reply: -1

---

test: Viability qHTS for spleen associated tyrosine kinase inhibitor (SYKi) drug resistant MV4-11 cells (AID 1963824); settings: SYKi-resistant MV4-11 viability, CellTiter-Glo, 72 h; series mostly up to 45 µM; also: nearly all actives have a fitted effect of over 35% in size
Records with an inconclusive call do not appear. Activity calls are given as the source filed them. Calls follow the shape of the dose curve; as a rule, active = well fitted cell-killing curve with a large enough effect; inconclusive = small, poorly fitted or top-dose-only effect, or effect the other way; inactive = no such curve, though single readings can be large or run the other way.
Can you answer with just one of these options? active, inactive

Query: Recorded test outcome, item Nc1c2ccccc2nc2ccccc12
Reply: active

Query: Can you look up the reported call for CC(=O)[C@@H]1CC[C@]2(C(=O)O)CC[C@]3(C)C(CCC4[C@@]5(C)CC[C@H](O)C(C)(C)C5CC[C@]43C)C12 (stereo partly specified) for me?
Reply: active

Query: # outcome recorded in this test, key = O=C1O[C@H](CO)[C@@H](O)[C@H](O)[C@H]1O
Reply: inactive

Query: Tell me the assay call for O=C(CCCCCCNC(=O)c1cnc(N(c2ccccc2)c2ccccc2)nc1)NO please.
Reply: active

Query: Hi, do you know how Cn1nccc1-c1ccccc1Oc1ccc(S(=O)(=O)Nc2nccs2)cc1C#N came out in this test?
Reply: active

Query: Could you check what this test reported for Clc1ccc2c(c1)N=C(N1CCNCC1)c1ccccc1N2 ?
Reply: active

---

assay: Viability qHTS for spleen associated tyrosine kinase inhibitor (SYKi) drug resistant MV4-11 cells (AID 1963824); details: SYKi-resistant MV4-11 viability, CellTiter-Glo, 72 h; series mostly up to 45 µM; also: nearly all actives have a fitted effect of over 35% in size
Records with an inconclusive call do not appear. Calls of active or inactive are those of the source. Calls follow the shape of the dose curve; as a rule, active = well fitted cell-killing curve with a large enough effect; inconclusive = small, poorly fitted or top-dose-only effect, or effect the other way; inactive = no such curve, though single readings can be large or run the other way.
Give your call using only these classes: active, inactive

Query: Dear colleague, could you share the recorded outcome for Cc1occc(=O)c1O[C@@H]1O[C@H](COC(=O)CC(C)(O)CC(=O)O)[C@@H](O)[C@H](O)[C@H]1O (stereo partly drawn) when you have a moment?
Reply: inactive

Query: Please indicate how the test categorized CC(C)(C)NCC(O)COc1cccc2c1CCC(=O)N2 (stereo not drawn) .
Reply: inactive

Query: Record request — test call for COc1ccc(-c2csc(NC(=O)[C@H]3CCCCN3S(=O)(=O)c3ccc(C)cc3)n2)cc1
Reply: active

---

experiment: Quantitative highthroughput screen to assess conditional lethalithy of P12 Ichikawa cells grown in RPMI1640 with dialyzed fetal bovine serum (RPMI+ds) (AID 1963880); conditions: ATP luminescence, 48 h; P12-Ichikawa viability; series mostly up to 45.8 µM; also: nearly all actives have a fitted effect of over 35% in size;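 as to viability: 100% = DMSO wells and 0% = empty wells on each plate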
Records with an inconclusive call do not appear. Calls of active or inactive are those of the source. Calls follow the shape of the dose curve; as a rule, active = well fitted cell-killing curve with a large enough effect; inconclusive = small, poorly fitted or top-dose-only effect; inactive = flat fitted curve, though single readings scatter.
# valid calls are label 1 (active), label 0 (inactive); nothing else

Query: Outcome logged for C=CC(=O)N1CCc2ccc(-n3c(=O)ccc4cnc5ccc(-c6cnn(C)c6)cc5c43)cc21 in this assay:
Reply: label 1

Query: Call for entry CN1C[C@H]2c3ccccc3Oc3ccc(Cl)cc3[C@@H]2C1 :
Reply: label 0

Query: # fetch the recorded call for CCC1=C(C)CN(C(=O)NCCc2ccc(S(=O)(=O)NC(=O)NC3CCC(C)CC3)cc2)C1=O (stereo not given) here
Reply: label 0

Query: What classification did CC(C)=CC[C@@H](O)C1=CC(=O)c2c(O)ccc(O)c2C1=O end up with in this test?
Reply: label 1

Query: For C#C[C@]1(O)CC[C@H]2[C@H]3CCc4cc(OC)ccc4[C@H]3CC[C@@]21C , which call appears in the assay record?
Reply: label 0

Query: I would be grateful if you could indicate the recorded call for O=c1[nH]cnc2c1ncn2[C@H]1CC[C@@H](CO)O1 .
Reply: label 1

Query: Returns: the outcome recorded for Nc1ccc(S(=O)(=O)Nc2ncccn2)cc1 in this assay.
Reply: label 0

Query: Short answer needed: outcome of this test for CCOCC(O)COc1ccc(NC(=O)CC[S+](C)C)cc1 (stereo not given) ?
Reply: label 0

Query: Test call, this compound: COC(=O)C1=C(C)NC(C)=C(C(=O)OCCCN2CCC(c3ccccc3)(c3ccccc3)CC2)C1c1cccc([N+](=O)[O-])c1 (stereo not given)
Reply: label 0

Query: Hello, I am checking results. What call was entered for CCn1c(=O)c2c(nc(C=Cc3ccc(OC)c(OC)c3)n2C)n(CC)c1=O ?
Reply: label 0

Query: So what was the verdict on Cc1ccc2c(c1)c1c(n2CCc2ccc(C)nc2)CCN(C)C1 in this test?
Reply: label 0

Query: Please share the test call associated with O=C(NC[C@H](O)CN1CCc2ccccc2C1)c1cc(NC2COC2)ncn1 .
Reply: label 0

Query: Assay result, entry O=C1c2cccc(O)c2C(=O)c2c(O)cc(CO)cc21 — outcome?
Reply: label 0

Query: Answer briefly: the call reported for CCC(=O)NC[C@H](Cc1ccc(OCCc2nc(-c3ccccc3)oc2C)cc1)NC(C)=CC(=O)c1ccc(C(F)(F)F)cc1 in this assay.
Reply: label 1

Query: Short answer needed: outcome of this test for CC(C)C(C)C=CC(C)C1CCC2C3=CC=C4CC(O)CCC4(C)C3CCC21C (stereo not given) ?
Reply: label 0
